Test system: HEK293 cells
Assay details: MTT viability assay, HEK293 cells
Type: cell-based
Measurement context: Homo sapiens, HEK293, 48 h incubation, mean, n = 3, read-out: IC50 against HEK293 cells
Parameter: IC50
Kindly report the value followed by its unit.

Answered examples (3):
[ask] Query: IC50; subject: CN(C)CCCNC(=O)OC1CCC2(CC1)OOC1(CCC(C(C)(C)C)CC1)OO2 (stereo not shown) [Compound 37a]
[reply] 0.8 µM

[ask] Now the same for CC(C)(C)C1CCC2(CC1)OOC1(CCC(O)CC1)OO2 (stereo not shown)
[reply] 5.8 µM

[ask] Now the same for CC(C)(C)C1CCC2(CC1)OOC1(CCC(OC(=O)NCCC[P+](c3ccccc3)(c3ccccc3)c3ccccc3)CC1)OO2.[Br-] (stereo not shown) [Compound 37b]
[reply] 1.6 µM

Further cases:
[ask] Query: IC50; subject: CN(C)CCCNC(=O)OC1CCC2(CC1)OOC1(OO2)C2CC3CC(C2)CC1C3 (stereo not shown) [Compound 30a]
[reply] 2.5 µM

* * *

System: HepG2 cells
Assay details: MTT viability assay, HepG2 cells
Assay type: cell-based, human
Measurement context: MTT, 48 h incubation, mean, n = 3; read-out: IC50 against HepG2 cells
Parameter: IC50 (nM)
Give bare numbers, in nM.

[ask] Query: IC50; subject: O=C(NCCC[P+](c1ccccc1)(c1ccccc1)c1ccccc1)OC1CCC2(CC1)OOC1(OO2)C2CC3CC(C2)CC1C3 (stereo not shown) [Compound 30b]
[reply] 1200

* * *

Record form. Attribute: IC50. Fill in for each entry.
System: MDA-MB-231 cells
Assay details: MTT viability assay, MDA-MB-231 cells
Assay type: cell-based
Measurement context: Homo sapiens, MDA-MB-231, 48 h, MTT, 48 h incubation, mean, n = 3; read-out: IC50 against MDA-MB-231 cells
Give bare numbers, in µM.

Items follow; give IC50 for each.
1. C#CCCNC(=O)OCC(C)(C)C1CCC2(CC1)OOC1(CCC(OC(=O)NCCC[P+](c3ccccc3)(c3ccccc3)c3ccccc3)CC1)OO2 [Compound alk-L-37b]
2. C[C@H]1[C@H](OC(=O)CCC(=O)O)O[C@@H]2O[C@@]3(C)CC[C@H]4[C@H](C)CC[C@@H]1[C@@]24OO3 [Artesunate, reference compound]

[reply]
[2.1, 20.3]

* * *

System: MDA-MB-231 cells
Assay details: MTT viability assay, MDA-MB-231 cells
Assay type: cell-based
Measurement context: Homo sapiens, MDA-MB-231, 48 h, MTT, 48 h incubation, mean, n = 3; read-out: IC50 against MDA-MB-231 cells
Parameter: IC50 (µM)
Answers are plain numbers, in µM.

Answered examples (3):
[ask] Query: IC50; subject: CN(C)CCCNC(=O)OC1CCC2(CC1)OOC1(CCC(C(C)(C)C)CC1)OO2 (centres unmarked) [Compound 37a]
[reply] 2

[ask] Now the same for CN(CCCNC(=O)OC1CCC2(CC1)OOC1(CCC(C(C)(C)C)CC1)OO2)Cc1ccccc1 (centres unmarked) [Compound 37e]
[reply] 1.7

[ask] Now the same for CC(C)(C)C1CCC2(CC1)OOC1(CCC(OC(=O)NCCOCCOCCNC(=O)OC3CCC4(CC3)OOC3(CCC(C(C)(C)C)CC3)OO4)CC1)OO2 (centres unmarked) [Compound 37j]
[reply] 23.9

Items follow; give IC50 for each.
1. CC(C)(C)C1CCC2(CC1)OOC1(CCC(O)CC1)OO2 (centres unmarked)
2. O=C(NCCC[P+](c1ccccc1)(c1ccccc1)c1ccccc1)OC1CCC2(CC1)OOC1(CCCCC1)OO2 [Compound 59b]
3. CCOc1ccccc1-n1c(C(C)N2CCN(C(=O)COc3ccc(Cl)cc3)CC2)nc2ccccc2c1=O (centres unmarked) [Erastin, reference compound]

[reply]
1. 7.4
2. 1.9
3. 1.3

* * *

Record form. Attribute: IC50. Fill in for each entry.
System: MDA-MB-231 cells
Assay details: MTT viability assay, MDA-MB-231 cells
Assay type: cell-based
Measurement context: Homo sapiens, MDA-MB-231, 48 h, MTT, 48 h incubation, mean, n = 3; read-out: IC50 against MDA-MB-231 cells
Answers are plain numbers, in µM.

Answered examples (3):
[ask] Query: IC50; subject: CC(C)(C)C1CCC2(CC1)OOC1(CCC(OC(=O)N3CC[N+](C)(C)CC3)CC1)OO2 (centres unmarked)
[reply] 26.1

[ask] Now the same for C#CCCN(CCC[P+](c1ccccc1)(c1ccccc1)c1ccccc1)C(=O)OC1CCC2(CC1)OOC1(CCC(C(C)(C)C)CC1)OO2 (centres unmarked) [Compound alk-R-37b]
[reply] 2.3

[ask] Now the same for CC(C)(C)C1CCC2(CC1)OOC1(CCC(OC(=O)NCCCN(Cc3ccccc3)Cc3ccccc3)CC1)OO2 (centres unmarked) [Compound 37d]
[reply] 31.7

Please look at the following compound next.
[ask] Query: IC50; subject: CN(C)CCCNC(=O)OC1CCC2(CC1)OOC1(OO2)C2CC3CC(C2)CC1C3 (centres unmarked) [Compound 30a]
[reply] 14.4

Data provenance: patent US20240101584A1
